- System: Pseudomonas aeruginosa
- Protocol: Antibacterial activity against Pseudomonas aeruginosa ATCC 27853 after 18 hrs by CLSI based broth microdilution method
- Assay type: functional
- Experimental Setup: ATCC 27853, 18 h
Reported Property: MIC (µM)
Give a bare numeral; the unit µM is implied.

MIC on Pseudomonas aeruginosa for CCCCCCCCCC(=O)NCC(=O)N[C@@H](CC(C)C)C(=O)N[C@@H](CC(C)C)C(=O)N[C@H](CCCCN)C(=O)N[C@@H](CCCNC(=N)N)C(=O)N[C@H](C(=O)N[C@H](CCCCN)C(=O)N[C@H](C(=O)N[C@@H](CC(C)C)C(=O)N[C@@H](CC(C)C)C(N)=O)[C@@H](C)O)[C@@H](C)CC is 8

Pseudomonas aeruginosa data for CCCC(=O)NCC(=O)N[C@@H](CC(C)C)C(=O)N[C@@H](CC(C)C)C(=O)N[C@H](CCCCN)C(=O)N[C@@H](CCCNC(=N)N)C(=O)N[C@H](C(=O)N[C@H](CCCCN)C(=O)N[C@H](C(=O)N[C@@H](CC(C)C)C(=O)N[C@@H](CC(C)C)C(N)=O)[C@@H](C)O)[C@@H](C)CC ; its MIC: 128

# MIC measured on Pseudomonas aeruginosa for item CO[C@H]1/C=C/O[C@@]2(C)Oc3c(C)c(O)c4c(O)c(c(/C=N/N5CCN(C)CC5)c(O)c4c3C2=O)NC(=O)/C(C)=C\C=C\[C@H](C)[C@H](O)[C@@H](C)[C@@H](O)[C@@H](C)[C@H](OC(C)=O)[C@@H]1C = 32

// MIC (Pseudomonas aeruginosa) for CCCCCCCCCCCC(=O)NCC(=O)N[C@@H](CC(C)C)C(=O)N[C@@H](CC(C)C)C(=O)N[C@H](CCCCN)C(=O)N[C@@H](CCCNC(=N)N)C(=O)N[C@H](C(=O)N[C@H](CCCCN)C(=O)N[C@H](C(=O)N[C@@H](CC(C)C)C(=O)N[C@@H](CC(C)C)C(N)=O)[C@@H](C)O)[C@@H](C)CC = 16

---

- System: Escherichia coli
- Protocol: Disruption of membrane integrity in Escherichia coli ATCC 25922 assessed as membrane damage by measuring PI fluorescence at 2 times of MIC incubated for 1 hr by PI dye based flow cytometric analysis (reference value: 1.35%)
- Type: functional
Where a SMILES comes first, the peptide text is derived from it. Bridges are numbered along the chain shown (N, C = ends). [ ]: non-standard residue; d: D form. The star is where a group is joined. X1 = CC[C@H](C)CCCCC(=O)*; Dab = NCC[C@H](N)C(=O)O
Reported Property: Activity (%)
Return type: number; implicit unit %.

Entry under test: CC[C@H](C)CCCCC(=O)N[C@@H](CCN)C(=O)N[C@H](C(=O)N[C@@H](CCN)C(=O)N[C@H]1CCNC(=O)[C@H]([C@@H](C)O)NC(=O)[C@H](CCN)NC(=O)[C@H](CCN)NC(=O)[C@H](CC(C)C)NC(=O)[C@@H](Cc2ccccc2)NC(=O)[C@H](CCN)NC1=O)[C@@H](C)O (X1-[Dab]T[Dab][Dab][Dab][dF]L[Dab][Dab]T; lactam 4-C) . Its Activity was 3.47

So, CCCCCCCCCCCC(=O)NCC(=O)N[C@@H](CC(C)C)C(=O)N[C@@H](CC(C)C)C(=O)N[C@H](CCCCN)C(=O)N[C@@H](CCCNC(=N)N)C(=O)N[C@H](C(=O)N[C@H](CCCCN)C(=O)N[C@H](C(=O)N[C@@H](CC(C)C)C(=O)N[C@@H](CC(C)C)C(N)=O)[C@@H](C)O)[C@@H](C)CC ? Its Activity was 60.8

Reported Activity of CC[C@H](C)[C@H](NC(=O)[C@H](CCCNC(=N)N)NC(=O)[C@H](CCCCN)NC(=O)[C@H](CC(C)C)NC(=O)[C@H](CC(C)C)NC(=O)CN)C(=O)N[C@@H](CCCCN)C(=O)N[C@H](C(=O)N[C@@H](CC(C)C)C(=O)N[C@@H](CC(C)C)C(N)=O)[C@@H](C)O [ANOPLIN] (H-GLLKRIKTLL-NH2) : 20.4
